The reported measurements were obtained from patent US20260193293A1.

Tested System: Sushi domains (SD1/2) protein of the GABAB1a (GB1a) subunit, recombinant
Sequence (Q9Z0U4 29-158): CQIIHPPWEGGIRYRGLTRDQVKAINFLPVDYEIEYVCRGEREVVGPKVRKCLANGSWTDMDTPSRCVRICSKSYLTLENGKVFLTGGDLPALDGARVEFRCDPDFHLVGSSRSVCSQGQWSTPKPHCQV
Method Notes: FP competition
Non-standard residues stand in square brackets, D forms with d. NMeT = CN[C@H](C(=O)O)[C@@H](C)O
Measure: Ki (nM)
Could you give me the number in nM? Just the number is fine.

Ac-PWAIVWGPTV-NH2 :: 561
Ac-ETEFIAWGPTGDED-NH2 [AJAP-1WT (Ac-…-NH2)] :: 32

Problem: Name the recorded Ki for Ac-ETEFIAWGPAGDED-NH2 .
Result: 89

Problem: Name the recorded Ki for Ac-PWAIVWGPTVSREDGG-NH2 .
Result: 561

Problem: Name the recorded Ki for Ac-PWAIVWGP[NMeT]VSRED-NH2 (SMILES CC[C@H](C)[C@H](NC(=O)[C@H](C)NC(=O)[C@H](Cc1c[nH]c2ccccc12)NC(=O)[C@@H]1CCCN1C(C)=O)C(=O)N[C@H](C(=O)N[C@@H](Cc1c[nH]c2ccccc12)C(=O)NCC(=O)N1CCC[C@H]1C(=O)N(C)[C@H](C(=O)N[C@H](C(=O)N[C@@H](CO)C(=O)N[C@@H](CCCNC(=N)N)C(=O)N[C@@H](CCC(=O)O)C(=O)N[C@@H](CC(=O)O)C(N)=O)C(C)C)[C@@H](C)O)C(C)C) [PWAIVWGP(N-Me-T)VSRED] .
Result: 1260

Problem: Name the recorded Ki for Ac-EDDDWIDWGPTSDDDRRRRRRRR-NH2 [17-R8 (…)] .
Result: 123

Problem: Name the recorded Ki for Ac-EFIAWGPTGDED-NH2 .
Result: 112
